test system: Mutu; test: cells; format: cell-based; details: Homo sapiens, 72 h

{"record.smiles": "COc1cc2c3cc1Oc1c(OC)c(OC)cc4c1[C@@H](Cc1ccc(O)c(c1)Oc1ccc(cc1)C[C@@H]3N(C)CC2)N(C)CC4", "IC50, µM": 4.64}

* * *

system: OVCAR-5; experiment: cells; type: cell-based; conditions: Homo sapiens, OVCAR-5, 72 h

{"compound": "COc1cc2c3cc1Oc1c(OC)c(OC)cc4c1[C@@H](Cc1ccc(O)c(c1)Oc1ccc(cc1)C[C@@H]3N(C)CC2)N(C)CC4 [BBM, berbamine]", "IC50, µM": 9.88}

* * *

test system: TK-10; assay: cells; type: cell-based; details: Homo sapiens, TK-10, 72 h

{"record.smiles": "COc1cc2c3cc1Oc1c(OC)c(OC)cc4c1[C@@H](Cc1ccc(O)c(c1)Oc1ccc(cc1)C[C@@H]3N(C)CC2)N(C)CC4", "IC50 / µM": 35.8}

* * *

test system: COLO 205; experiment: cells; type: cell-based; settings: Homo sapiens, COLO 205, 72 h
pIC50: −log10 of the molar value.
observable: pIC50

{"record.smiles": "COc1cc2c3cc1Oc1c(OC)c(OC)cc4c1[C@@H](Cc1ccc(O)c(c1)Oc1ccc(cc1)C[C@@H]3N(C)CC2)N(C)CC4", "readout.number": 4.80}

* * *

system: SW-620; assay: cells; format: cell-based; conditions: Homo sapiens, SW-620, 72 h
observable: IC50 (µM)

{"record.smiles": "COc1cc2c3cc1Oc1c(OC)c(OC)cc4c1[C@@H](Cc1ccc(O)c(c1)Oc1ccc(cc1)C[C@@H]3N(C)CC2)N(C)CC4", "assay.system": "SW-620", "observable": "IC50", "readout.number": 12.4}

* * *

test system: HT29; test: cells; format: cell-based; settings: Homo sapiens, HT-29, 72 h
observable: IC50 (µM)

{"record.smiles": "COc1cc2c3cc1Oc1c(OC)c(OC)cc4c1[C@@H](Cc1ccc(O)c(c1)Oc1ccc(cc1)C[C@@H]3N(C)CC2)N(C)CC4", "assay.system": "HT29", "observable": "IC50", "readout.number": 6.56}

* * *

tested on: KM12; assay: cells; assay type: cell-based; details: Homo sapiens, KM12, 72 h

{"record.smiles": "COc1cc2c3cc1Oc1c(OC)c(OC)cc4c1[C@@H](Cc1ccc(O)c(c1)Oc1ccc(cc1)C[C@@H]3N(C)CC2)N(C)CC4", "IC50 [µM]": 17.3}

* * *

test system: PC-3; experiment: cells; type: cell-based; settings: Homo sapiens, PC-3, 72 h

{"record.smiles": "COc1cc2c3cc1Oc1c(OC)c(OC)cc4c1[C@@H](Cc1ccc(O)c(c1)Oc1ccc(cc1)C[C@@H]3N(C)CC2)N(C)CC4", "IC50, µM": 7.94}

* * *

test system: OVCAR-4; assay: cells; format: cell-based; details: Homo sapiens, OVCAR-4, 72 h
observable: IC50 (µM)

{"record.smiles": "COc1cc2c3cc1Oc1c(OC)c(OC)cc4c1[C@@H](Cc1ccc(O)c(c1)Oc1ccc(cc1)C[C@@H]3N(C)CC2)N(C)CC4", "assay.system": "OVCAR-4", "readout.number": 15.1}

* * *

test system: MDA-MB-435; test: cells; format: cell-based; settings: Homo sapiens, MDA-MB-435, 72 h
pIC50: −log10 of the molar value.

{"molecule": "COc1cc2c3cc1Oc1c(OC)c(OC)cc4c1[C@@H](Cc1ccc(O)c(c1)Oc1ccc(cc1)C[C@@H]3N(C)CC2)N(C)CC4 [BBM, berbamine]", "assay.system": "MDA-MB-435", "pIC50": 4.87}
